The origin of these recorded values is the Human Domainome abundance scans (Beltran et al. 2025).

B1: Calcium-binding protein 2, residues 155 to 219; numbered along this chain, Q9NPB3 (parent)
chain: RELRDAFREFDTNGDGRISVGELRAALKALLGERLSQREVDEILQDVDLNGDGLVDFEEFVRMMS

# Variants of: B1
# PROTOCOL_NOTES: abundance fitness (aPCA) (normalised: wild type 0, dead -1); higher = more abundant; growth selection in yeast, the domain comes from the species named
# TEST_CONTEXT: Homo sapiens
Exercise: state measured abundance fitness for each of the variants provided.
One number for each entry.

Example entries begin here.
| ALTERATION | abundance fitness |
| --- | --- |
| I18L | 0.114 |
| D41I | -0.184 |
| L3C | -1 |
| N13S | -0.555 |
| E42P | -0.301 |

// each listed variant needs a value for abundance fitness
1. V47N
2. E33F
3. E42C
4. A25N
5. D48L

Return:
[-0.211, -0.109, -0.074, -0.109, -0.015]
